Recorded IC50 for the following compounds
# measured on: interaction between VCAM-1 and VLA-4 (Homo sapiens, UniProt P05556+P13612)
# Construct: supplied in their natural form as surface molecules on human U937 cells
# Sequence (P13612 34-1032): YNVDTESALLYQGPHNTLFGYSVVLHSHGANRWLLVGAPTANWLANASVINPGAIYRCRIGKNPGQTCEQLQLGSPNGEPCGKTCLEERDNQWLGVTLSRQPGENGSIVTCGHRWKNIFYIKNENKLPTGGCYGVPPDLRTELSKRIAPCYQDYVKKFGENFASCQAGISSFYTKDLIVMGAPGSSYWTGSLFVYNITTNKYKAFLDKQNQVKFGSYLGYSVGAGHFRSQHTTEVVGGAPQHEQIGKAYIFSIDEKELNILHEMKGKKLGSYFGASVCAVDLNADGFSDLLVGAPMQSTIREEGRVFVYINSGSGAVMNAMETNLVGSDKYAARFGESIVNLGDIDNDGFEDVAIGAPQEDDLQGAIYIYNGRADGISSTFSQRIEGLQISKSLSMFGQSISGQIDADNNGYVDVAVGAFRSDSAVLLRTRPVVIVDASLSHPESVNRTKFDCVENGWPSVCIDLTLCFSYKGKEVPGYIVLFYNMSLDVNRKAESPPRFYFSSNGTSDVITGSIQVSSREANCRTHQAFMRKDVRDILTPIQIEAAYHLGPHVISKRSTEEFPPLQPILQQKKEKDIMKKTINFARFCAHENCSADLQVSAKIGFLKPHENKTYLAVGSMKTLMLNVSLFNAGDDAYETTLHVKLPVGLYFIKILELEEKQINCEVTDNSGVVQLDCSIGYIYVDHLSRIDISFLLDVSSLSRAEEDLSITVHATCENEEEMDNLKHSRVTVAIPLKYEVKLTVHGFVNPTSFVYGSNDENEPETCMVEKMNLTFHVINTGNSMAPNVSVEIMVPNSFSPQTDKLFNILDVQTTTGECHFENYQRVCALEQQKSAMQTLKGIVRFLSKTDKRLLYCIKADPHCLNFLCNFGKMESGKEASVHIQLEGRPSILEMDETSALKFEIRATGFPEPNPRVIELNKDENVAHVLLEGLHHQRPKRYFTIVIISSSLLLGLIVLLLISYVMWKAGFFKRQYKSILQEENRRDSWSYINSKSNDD
# Sequence (P05556 21-798): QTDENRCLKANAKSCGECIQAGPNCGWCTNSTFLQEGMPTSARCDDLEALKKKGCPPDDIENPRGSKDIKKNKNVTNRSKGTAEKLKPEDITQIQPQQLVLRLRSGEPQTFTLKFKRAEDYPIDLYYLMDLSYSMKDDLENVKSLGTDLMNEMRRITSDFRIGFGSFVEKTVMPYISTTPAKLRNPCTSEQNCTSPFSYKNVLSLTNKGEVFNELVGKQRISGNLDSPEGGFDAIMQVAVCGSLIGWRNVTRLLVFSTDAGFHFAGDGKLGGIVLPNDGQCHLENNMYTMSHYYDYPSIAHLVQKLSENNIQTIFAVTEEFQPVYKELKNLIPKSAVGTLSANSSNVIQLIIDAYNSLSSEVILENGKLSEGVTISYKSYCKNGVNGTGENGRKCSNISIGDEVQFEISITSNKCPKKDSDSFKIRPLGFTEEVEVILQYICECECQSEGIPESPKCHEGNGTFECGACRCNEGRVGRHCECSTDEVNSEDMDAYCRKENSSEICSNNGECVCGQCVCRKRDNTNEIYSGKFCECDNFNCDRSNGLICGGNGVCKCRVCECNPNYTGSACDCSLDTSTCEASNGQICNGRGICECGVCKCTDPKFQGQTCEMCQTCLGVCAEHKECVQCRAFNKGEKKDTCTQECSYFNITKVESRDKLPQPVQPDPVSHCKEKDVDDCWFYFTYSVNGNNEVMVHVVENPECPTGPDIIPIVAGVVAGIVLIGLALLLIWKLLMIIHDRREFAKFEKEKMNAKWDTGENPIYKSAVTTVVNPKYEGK
# assay explanation: U937/VCAM-1 cell adhesion test (adhesion of U937 cells to hVCAM-1 (1-3)-IgG)
# condition label: read-out: IC50 (50% inhibition of adhesion)

compound | reading unit | IC50
CC(C)[C@H](NC(=O)[C@H](CC(=O)O)N(C)C(=O)CN1C(=O)N(Cc2ccc3ccccc3c2)C(C)(c2ccc(C(=N)N)cc2)C1=O)C(=O)N1CCOCC1 (stereo partly shown) | µM | 0.73
CC1(c2ccc(C(=N)N)cc2)C(=O)N(CC(=O)NC[C@H](NC(=O)OCC23CC4CC(CC(C4)C2)C3)C(=O)O)C(=O)N1Cc1ccccc1 (stereo partly shown) | µM | 1.25
CC1(c2ccc(C(=N)N)cc2)C(=O)N(CC(=O)NC[C@H](NC(=S)NCc2ccccc2)C(=O)O)C(=O)N1Cc1ccccc1 (stereo partly shown) | µM | 10.5
CC1(c2ccc(C(=N)N)cc2)C(=O)N(CC(=O)NC[C@H](NC(=O)NCc2ccccc2)C(=O)O)C(=O)N1Cc1ccccc1 (stereo partly shown) | µM | 11.5

Taken from patent US6034238A.
